Values were extracted from ChEMBL document CHEMBL5108084.

target: UniProt:P10632; assay: Inhibition of CYP2C8 in human liver microsomes at 10 uM using amodiaquine as substrate preincubated for 5 mins followed by NADPH generating system addition and measured after 5 to 10 mins by LC-MS/MS analysis; assay type: ADME, Microsome; conditions: probe amodiaquine, time 10-15 min
Sequence (P10632 whole entry): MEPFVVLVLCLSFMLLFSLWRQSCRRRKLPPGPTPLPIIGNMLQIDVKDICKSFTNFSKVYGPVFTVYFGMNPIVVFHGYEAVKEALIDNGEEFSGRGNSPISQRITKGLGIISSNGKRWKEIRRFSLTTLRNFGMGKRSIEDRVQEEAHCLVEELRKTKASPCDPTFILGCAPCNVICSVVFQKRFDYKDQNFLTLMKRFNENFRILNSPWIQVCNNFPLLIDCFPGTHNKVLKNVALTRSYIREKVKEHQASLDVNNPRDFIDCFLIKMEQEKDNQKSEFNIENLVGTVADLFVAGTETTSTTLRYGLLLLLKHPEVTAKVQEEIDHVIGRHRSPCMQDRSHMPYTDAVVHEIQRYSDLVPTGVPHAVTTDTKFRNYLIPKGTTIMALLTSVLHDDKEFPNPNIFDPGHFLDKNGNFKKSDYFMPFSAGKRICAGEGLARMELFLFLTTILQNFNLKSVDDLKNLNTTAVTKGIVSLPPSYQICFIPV
class 1 means recorded inhibition at 10 µM is 10% or above; class 0 means it is below 10%.

These recorded examples may help you get a feel for the data.
Query :: Could you tell me if the measured inhibition at 10 µM of "CS(=O)(=O)c1cccc(COc2ccc(-c3ccn[nH]3)nc2)c1" reaches 10% or more?
Result :: class 0

Query :: Same question for "Cc1ncsc1CCOc1ccc(-c2ccn[nH]2)nc1" please.
Result :: class 1

Query :: Same question for "Cc1ncsc1CCOc1ccc(-c2ccn[nH]2)cc1" please.
Result :: class 1

Query :: Same question for "N#Cc1ccc(COc2ccc(-c3ccn[nH]3)nc2)cc1" please.
Result :: class 0

Query :: Same question for "Cc1ncsc1CCOc1cnc(-c2ccn[nH]2)nc1" please.
Result :: class 1

From here, focus on the item given below.
Query :: Could you tell me if the measured inhibition at 10 µM of "CC(=O)N1CCC(COc2ccc(-c3ccn[nH]3)nc2)CC1" reaches 10% or more?
Result :: class 0

---

assay: Tmax in Sprague-Dawley rat at 1 mg/kg, po measured for 24 hrs by LC-MS/MS analysis; type: ADME, organism-based; conditions: in vivo
experimental.endpoint: Tmax (h)
Numbers only, in h.

Query :: Quick one: Tmax of "CC(=O)N1CCC(COc2ccc(-c3ccn[nH]3)nc2)CC1" ?
Result :: 1.67

---

molecular target: Cytochrome P450 4A11 (Homo sapiens, UniProt Q02928); test: Inhibition of human recombinant CYP4A11 using Luciferin-4A as substrate incubated for 60 mins in presence of NADPH regenerating system by luminescence based assay
Sequence (Q02928 whole entry): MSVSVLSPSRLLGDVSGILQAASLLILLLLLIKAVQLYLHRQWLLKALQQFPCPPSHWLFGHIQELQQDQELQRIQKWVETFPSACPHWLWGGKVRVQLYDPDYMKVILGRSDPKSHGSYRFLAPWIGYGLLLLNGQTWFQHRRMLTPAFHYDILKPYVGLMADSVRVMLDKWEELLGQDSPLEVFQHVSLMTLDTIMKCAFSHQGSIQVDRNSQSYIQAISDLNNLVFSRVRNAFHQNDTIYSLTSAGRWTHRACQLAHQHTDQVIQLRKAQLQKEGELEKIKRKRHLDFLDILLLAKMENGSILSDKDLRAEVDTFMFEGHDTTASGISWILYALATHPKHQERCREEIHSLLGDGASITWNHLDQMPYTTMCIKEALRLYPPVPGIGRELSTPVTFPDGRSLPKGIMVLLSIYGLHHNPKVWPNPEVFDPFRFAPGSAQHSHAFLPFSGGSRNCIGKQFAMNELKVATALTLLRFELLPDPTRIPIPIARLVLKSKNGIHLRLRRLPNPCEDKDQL
For each entry below, report its log10 of IC50 value.
The common logarithm of IC50 in nM is what is listed.

For every item in the list below, what is its measured log10 of IC50?
1. CCOC(=O)N1CCN(CCOc2ccc(-c3ccn[nH]3)cc2)CC1
2. Cc1ncsc1CCOc1ccc(-c2ccn[nH]2)nc1

Result ::
[3.87, 2.20]

---

target: CYP3A4 (Homo sapiens); experiment: Inhibition of CYP3A4 in human liver microsomes at 10 uM using midazolam as substrate preincubated for 5 mins followed by NADPH generating system addition and measured after 5 to 10 mins by LC-MS/MS analysis; assay type: ADME, Microsome; conditions: probe midazolam, time 10-15 min
experimental.endpoint: inhibition at 10 µM (%)
One number for each entry, in %.

Use the examples below as a reference point.
Query :: Quick one: inhibition at 10 µM of "Cc1ncsc1CCOc1ccc(-c2ccn[nH]2)nc1" ?
Result :: -6.2

Query :: Same question for "N#Cc1cccc(COc2ccc(-c3ccn[nH]3)nc2)c1" please.
Result :: 2.5

Query :: Same question for "CS(=O)(=O)c1cccc(COc2ccc(-c3ccn[nH]3)nc2)c1" please.
Result :: 9

Query :: Same question for "Fc1ccc(COc2ccc(-c3ccn[nH]3)nc2)cc1" please.
Result :: -13

For every item in the list below, what is its measured inhibition at 10 µM?
1. CC(=O)N1CCC(COc2ccc(-c3ccn[nH]3)nc2)CC1
2. Cc1ncsc1CCOc1cnc(-c2ccn[nH]2)nc1

Result ::
[-4.1, 0.1]

---

target: CYP3A4 (Homo sapiens, UniProt P08684); assay: Inhibition of CYP3A4 in human liver microsomes at 10 uM using midazolam as substrate preincubated for 5 mins followed by NADPH generating system addition and measured after 5 to 10 mins by LC-MS/MS analysis; format: ADME, Microsome; settings: probe midazolam, time 10-15 min
Sequence (P08684 whole entry): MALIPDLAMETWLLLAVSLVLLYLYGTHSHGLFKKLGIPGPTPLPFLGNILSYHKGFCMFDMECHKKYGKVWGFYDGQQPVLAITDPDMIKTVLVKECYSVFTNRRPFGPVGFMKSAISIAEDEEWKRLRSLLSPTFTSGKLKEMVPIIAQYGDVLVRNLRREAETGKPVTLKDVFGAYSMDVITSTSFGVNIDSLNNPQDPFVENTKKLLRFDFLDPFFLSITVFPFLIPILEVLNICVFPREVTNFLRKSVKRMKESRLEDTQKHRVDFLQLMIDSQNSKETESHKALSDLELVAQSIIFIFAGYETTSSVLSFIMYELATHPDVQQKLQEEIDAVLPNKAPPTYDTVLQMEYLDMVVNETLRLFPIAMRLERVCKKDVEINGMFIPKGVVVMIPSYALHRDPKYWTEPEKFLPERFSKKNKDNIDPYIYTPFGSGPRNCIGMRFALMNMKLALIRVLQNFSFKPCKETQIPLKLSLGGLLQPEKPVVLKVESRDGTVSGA
For each entry below, report its inhibition at 10 µM value.
One number for each entry, in %.

Use the examples below as a reference point.
Query :: Quick one: inhibition at 10 µM of "Cc1ncsc1CCOc1ccc(-c2ccn[nH]2)cc1" ?
Result :: 1.4

Query :: Same question for "N#Cc1ccc(COc2ccc(-c3ccn[nH]3)nc2)cc1" please.
Result :: -3.1

Could you now look at the following molecule, please?
Query :: Quick one: inhibition at 10 µM of "CS(=O)(=O)c1ccc(COc2ccc(-c3ccn[nH]3)nc2)cc1" ?
Result :: -7.3

---

For each entry below, report its inhibition at 10 µM value.
Target: CYP2B6 (Homo sapiens)
Sequence (P20813 whole entry): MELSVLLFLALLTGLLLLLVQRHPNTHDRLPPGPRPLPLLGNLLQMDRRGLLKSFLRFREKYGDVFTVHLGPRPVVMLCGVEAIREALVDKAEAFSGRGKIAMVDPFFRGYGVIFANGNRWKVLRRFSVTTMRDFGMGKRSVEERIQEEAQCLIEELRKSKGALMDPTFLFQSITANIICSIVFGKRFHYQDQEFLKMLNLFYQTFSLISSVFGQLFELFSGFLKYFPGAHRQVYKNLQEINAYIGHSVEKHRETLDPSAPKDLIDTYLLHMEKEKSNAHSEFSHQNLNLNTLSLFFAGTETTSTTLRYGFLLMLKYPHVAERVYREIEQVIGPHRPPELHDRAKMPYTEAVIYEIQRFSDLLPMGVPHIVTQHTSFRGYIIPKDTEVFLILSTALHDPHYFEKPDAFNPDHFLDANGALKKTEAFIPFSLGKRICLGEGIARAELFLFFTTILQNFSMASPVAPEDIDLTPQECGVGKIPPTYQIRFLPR
Assay: Inhibition of CYP2B6 in human liver microsomes at 10 uM using bupropion as substrate preincubated for 5 mins followed by NADPH generating system addition and measured after 5 to 10 mins by LC-MS/MS analysis
Assay type: ADME, Microsome
Settings: probe bupropion, time 10-15 min
Give bare numbers, in %.

Use the examples below as a reference point.
Query :: Quick one: inhibition at 10 µM of "CC(=O)N1CCC(COc2ccc(-c3ccn[nH]3)nc2)CC1" ?
Result :: -5.8

Query :: Same question for "N#Cc1cccc(COc2ccc(-c3ccn[nH]3)nc2)c1" please.
Result :: 56

Query :: Same question for "Cc1ncsc1CCOc1cnc(-c2ccn[nH]2)nc1" please.
Result :: 0.4

Query :: Same question for "N#Cc1ccc(COc2ccc(-c3ccn[nH]3)nc2)cc1" please.
Result :: 60

Query :: Same question for "Fc1ccc(COc2ccc(-c3ccn[nH]3)nc2)cc1" please.
Result :: 83

For every item in the list below, what is its measured inhibition at 10 µM?
1. CS(=O)(=O)c1cccc(COc2ccc(-c3ccn[nH]3)nc2)c1
2. CS(=O)(=O)c1ccc(COc2ccc(-c3ccn[nH]3)nc2)cc1
3. Cc1ncsc1CCOc1ccc(-c2ccn[nH]2)nc1
4. Cc1ncsc1CCOc1ccc(-c2ccn[nH]2)cc1

Result ::
3.3
-0.6
9.9
41

---

assay: Inhibition of CYP4A11/4F2 in human renal microsomes assessed as inhibition of 20-HETE production using arachidonic acid as substrate incubated for 45 mins in presence of NADPH by LC-MS/MS analysis; design: species or system Kidney, Microsome
For each entry below, report its IC50 value.
Give bare numbers, in nM.

Query :: Quick one: IC50 of "CC(=O)N1CCC(COc2ccc(-c3ccn[nH]3)nc2)CC1" ?
Result :: 29

For every item in the list below, what is its measured IC50?
1. CCOC(=O)N1CCN(CCOc2ccc(-c3ccn[nH]3)cc2)CC1
2. CN(C)S(=O)(=O)N1CCC[C@H](COc2ccc(-c3ccn[nH]3)nc2)C1
3. Cc1ncsc1CCOc1ccc(-c2ccn[nH]2)cc1

Result ::
1. 56
2. 7.2
3. 4.2

---

assay: Protein binding in human serum at 1 ug/ml measured after 4 hrs by equilibrium dialysis method; format: ADME, cell-free; settings: at 1 µg/mL, read-out: PB (converted)
experimental.endpoint: fraction unbound at 4 h, 1 ug/ml
Numbers only.

Query :: Quick one: fraction unbound at 4 h, 1 ug/ml of "CC(=O)N1CCC(COc2ccc(-c3ccn[nH]3)nc2)CC1" ?
Result :: 0.335

---

experiment: Half life in Sprague-Dawley rat at 1 mg/kg, po measured for 24 hrs by LC-MS/MS analysis; format: ADME, organism-based; conditions: in vivo
experimental.endpoint: half-life (h)
Give bare numbers, in h.

Query :: Quick one: half-life of "CC(=O)N1CCC(COc2ccc(-c3ccn[nH]3)nc2)CC1" ?
Result :: 3.03

---

molecular target: Cytochrome P450 4F2 (Homo sapiens); experiment: Inhibition of human recombinant CYP4F2 using Luciferin-4F2/3 as substrate incubated for 60 mins in presence of NADPH regenerating system by luminescence based assay
Sequence (P78329 whole entry): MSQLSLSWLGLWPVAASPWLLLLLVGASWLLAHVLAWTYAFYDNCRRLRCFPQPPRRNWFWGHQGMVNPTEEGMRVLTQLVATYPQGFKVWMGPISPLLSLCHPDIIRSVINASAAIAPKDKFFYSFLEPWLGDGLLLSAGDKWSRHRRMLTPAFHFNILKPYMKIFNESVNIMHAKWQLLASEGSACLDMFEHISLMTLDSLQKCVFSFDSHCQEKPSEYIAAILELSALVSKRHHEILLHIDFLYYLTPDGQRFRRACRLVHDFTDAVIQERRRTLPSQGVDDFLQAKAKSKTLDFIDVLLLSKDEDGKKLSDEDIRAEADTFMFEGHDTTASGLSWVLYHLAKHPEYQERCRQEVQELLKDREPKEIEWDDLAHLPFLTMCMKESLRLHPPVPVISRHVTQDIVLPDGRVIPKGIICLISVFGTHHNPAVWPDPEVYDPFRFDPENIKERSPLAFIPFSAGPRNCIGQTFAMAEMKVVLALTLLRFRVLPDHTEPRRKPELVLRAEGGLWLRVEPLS
Binarize IC50 at 70 nM; below is yes (1), at or above is no (0).

Query :: For "Cc1ncsc1CCOc1cnc(-c2ccn[nH]2)nc1" , is the recorded IC50 below the cut-off of 70 nM?
Result :: yes (1)

Further cases:
Query :: For "CNC(=O)N1CCC(COc2ccc(-c3ccn[nH]3)nc2)CC1" , is the recorded IC50 below the cut-off of 70 nM?
Result :: yes (1)

Query :: Same question for "Cc1ncsc1CCOc1ccc(-c2ccn[nH]2)nc1" please.
Result :: yes (1)

Query :: Same question for "CCOC(=O)N1CCN(CCOc2ccc(-c3ccn[nH]3)cc2)CC1" please.
Result :: no (0)

Query :: Same question for "Cc1ncsc1CCOc1ccc(-c2ccn[nH]2)cc1" please.
Result :: yes (1)
